Property: Max MFI; scope: individual binders
Biological target: T1, human CCR8 (human, UniProt P51685 1-355)
T1 construct: whole, on cells; also called hCCR8
T1 sequence (P51685 whole entry): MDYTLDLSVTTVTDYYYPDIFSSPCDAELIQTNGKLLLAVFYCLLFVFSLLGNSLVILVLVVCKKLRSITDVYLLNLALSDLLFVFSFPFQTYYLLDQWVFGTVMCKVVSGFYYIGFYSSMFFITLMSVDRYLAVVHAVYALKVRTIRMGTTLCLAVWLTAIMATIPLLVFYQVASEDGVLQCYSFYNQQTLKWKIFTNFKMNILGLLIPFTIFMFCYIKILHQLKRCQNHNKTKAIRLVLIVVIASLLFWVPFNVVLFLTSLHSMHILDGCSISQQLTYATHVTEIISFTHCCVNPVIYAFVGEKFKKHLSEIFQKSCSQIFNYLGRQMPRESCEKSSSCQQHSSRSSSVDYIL
Test: FACS on HuT78 cells (endogenous human CCR8)
readout kind: Max MFI (MFI)

* Hu149-24 (antibody, human IgG1, V domains shown, human IgG1) VH: EVQLVESGGGLVQPGGSLKLSCAASGFTFNTYAMNWVRQAPGKGLEWVGRIRSKSNFYATAYAASVKGRFTISRDDSKNTAYLQMNSLKTEDTAVYYCTRGKEYGSSYAMDYWGQGTLVTVSS VL: DIVMTQSPLSLPVTPGEPASISCRSSKSLLHSNANTYLYWFLQKPGQSPQLLIYRMSNLASGVPDRFSGSGSGTDFTLKISRVEAEDVGVYYCMQHLKYPLTFGGGTKVELK | 198000
* Hu149-22 (antibody, human IgG1, V domains shown, human IgG1) VH: EVQLVESGGGLVQPGGSLKLSCAASGFTFNTYAMNWVRQASGKGLEWVGRIRSKSNFYATAYAASVKGRFTISRDDSKNTAYLQMNSLKTEDTAVYYCTRGREYGSAYAMDYWGQGTLVTVSS VL: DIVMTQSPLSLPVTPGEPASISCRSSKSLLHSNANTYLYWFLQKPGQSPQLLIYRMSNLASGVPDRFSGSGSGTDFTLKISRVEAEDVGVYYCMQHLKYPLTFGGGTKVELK | 173000
* Hu149-17 (antibody, human IgG1, V domains shown, human IgG1) VH: EVQLVESGGGLVQPGGSLKLSCAASGFTFNTYAMNWVRQASGKGLEWVGRIRSKSNFYATAYAASVKGRFTISRDDSKNTAYLQMNSLKTEDTAVYYCTRGRDYGSSYAMDYWGQGTLVTVSS VL: DIVMTQSPLSLPVTPGEPASISCRSSKSLLHSNANTYLYWFLQKPGQSPQLLIYRMSNLASGVPDRFSGSGSGTDFTLKISRVEAEDVGVYYCMQHLSYPLTFGGGTKVELK | 29600
